- MEASUREMENT TARGET: T1, monkey CD73 (Novoprotein, Cat No. C121) (monkey, UniProt A0A2K5V5U7 27-549)
- T1 construct: Bought protein; also called monkey CD73 protein
- T1 sequence: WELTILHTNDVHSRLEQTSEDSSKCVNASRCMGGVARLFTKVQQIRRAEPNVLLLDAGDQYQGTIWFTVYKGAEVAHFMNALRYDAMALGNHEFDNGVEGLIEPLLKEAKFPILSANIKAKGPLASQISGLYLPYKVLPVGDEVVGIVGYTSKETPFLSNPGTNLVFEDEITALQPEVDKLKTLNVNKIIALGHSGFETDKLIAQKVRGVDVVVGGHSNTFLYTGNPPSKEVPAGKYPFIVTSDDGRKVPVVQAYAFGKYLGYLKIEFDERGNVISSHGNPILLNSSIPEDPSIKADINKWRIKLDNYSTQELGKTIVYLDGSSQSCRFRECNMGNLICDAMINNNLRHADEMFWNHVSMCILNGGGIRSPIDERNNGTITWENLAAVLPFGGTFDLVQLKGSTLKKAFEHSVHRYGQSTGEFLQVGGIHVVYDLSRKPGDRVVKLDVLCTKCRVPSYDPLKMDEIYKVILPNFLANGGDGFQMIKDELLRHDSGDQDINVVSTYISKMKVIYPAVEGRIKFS
- PROCEDURE TEXT: SPR (Biacore T200), antibody captured on protein A chip, CD73 as analyte, 1:1 model
ASSAY READOUT: kon (M⁻¹ s⁻¹)
Report the value in M⁻¹ s⁻¹ with no unit label.

Return value of kon for input 900695 (antibody, V domains shown, Constant regions are not restated) VH: QVQLVESGGGLVKPGGSLRLSCAASGFTFSKYAMSWVRQAPGKGLEWVAEISSGGGYINYADSVTGRFTISRDNAKNSLYLQMNSLRAEDTAVYYCARAIYYYGSSYNYYAMDYWGQGTTVTVSS VL: DIQMTQSPSSLSASVGDRVTITCRASQDVGTAEAWYQQKPGKAPKLLIYWASTRHTGVPSRFSGSGSGTDFTLTISSLQPEDFATYYCQQYSSYPLTFGQGTKLEIK , no commentary.
180000
